Molecular target: T1, human IL-11 (AAH12506.1, Pro22-Leu199) (human, UniProt P20809 22-199)
T1 construct: The range Pro22-Leu199 counts on AAH12506.1; The Octet runs say only 'human IL-11'; also called hIL-11
T1 chain: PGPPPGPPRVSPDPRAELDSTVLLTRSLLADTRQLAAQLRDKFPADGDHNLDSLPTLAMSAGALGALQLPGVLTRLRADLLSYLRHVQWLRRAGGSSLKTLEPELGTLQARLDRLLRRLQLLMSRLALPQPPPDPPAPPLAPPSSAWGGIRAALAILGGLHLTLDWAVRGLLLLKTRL
Test: BLI (Octet), antibody captured, human IL-11 in solution
Provide the recorded Kd for the entries that follow.
Answers are plain numbers, in nM.

binder="hz18A10-VH + hz18A10-VLm3 (antibody, V domains shown, Constant regions not restated for this antibody) VH: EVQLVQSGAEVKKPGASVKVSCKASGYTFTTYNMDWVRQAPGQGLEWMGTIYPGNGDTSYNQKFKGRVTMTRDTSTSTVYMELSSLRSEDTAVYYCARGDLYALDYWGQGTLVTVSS VL: DIQMTQSPSSLSASVGDRVTITCKASHSVSNDVAWYQQKPGKAPKLLIYSASNRYTGVPSRFSGSGSGTDFTFTISSLQPEDIATYYCQHDYSSPYTFGQGTKLEIK" measurement_unit=nM number=3.94

IN: Look up Kd: hz18A10-VH + hz18A10-VLm6 (antibody, V domains shown, Constant regions not restated for this antibody) VH: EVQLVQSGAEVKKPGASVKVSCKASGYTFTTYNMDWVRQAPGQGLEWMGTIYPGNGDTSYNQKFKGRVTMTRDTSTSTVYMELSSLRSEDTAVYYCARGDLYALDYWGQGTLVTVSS VL: DIQMTQSPSSLSASVGDRVTITCKASQSVFHDVAWYQQKPGKAPKLLIYSASNRYTGVPSRFSGSGSGTDFTFTISSLQPEDIATYYCQHDYSSPYTFGQGTKLEIK
OUT: 0.877

Origin of the recorded values: patent US20250197488A1
